Values compiled from patent US12486489B2.

- System: H. pylori
- assay.protocol: MIC of laboratory H. pylori strains by micro dilution method
- Type: cell-based
- run.conditions: Helicobacter pylori, read-out: minimum inhibitory concentration (MIC), strain 290; bacterial count 10^6 CFU/mL (first line of the strain)

compound | MIC
C[C@H]1COc2c(N3CCN(C)CC3)c(F)cc3c(=O)c(C(=O)O)cn1c23 [Levofloxacin, levofloxacin] | 32 µg/mL
CC1(C)S[C@@H]2[C@H](NC(=O)[C@H](N)c3ccc(O)cc3)C(=O)N2[C@H]1C(=O)O [Amoxicillin, amoxicillin] | 4 µg/mL
Cc1ncc([N+](=O)[O-])n1CCO [Metronidazole, metronidazole] | 32 µg/mL
CC[C@H]1OC(=O)[C@H](C)[C@@H](O[C@H]2C[C@@](C)(OC)[C@@H](O)[C@H](C)O2)[C@H](C)[C@@H](O[C@@H]2O[C@H](C)C[C@H](N(C)C)[C@H]2O)[C@](C)(OC)C[C@@H](C)C(=O)[C@H](C)[C@@H](O)[C@]1(C)O [Clarithromycin, clarithromycin] | 16 µg/mL
